biological target: Human cGAS amino acids 155-522 (Homo sapiens (Human)); assay: cGAS biochemical activity assay (ATP remaining, Kinase-Glo Max luminescence); details: human cGAS 155-522, ATP remaining (Kinase-Glo Max); read-out: cGAS IC50
pIC50: −log10 of the molar value.
Quick list: pIC50 per entry.

Consider the reported pIC50 for these compounds:
Entry Cc1[nH]c2c(-c3ccccc3)c(C(F)(F)F)nn2c(=O)c1-c1nc2c([nH]1)CCCC2 : reported pIC50 = ?
> 4.70

Moving on to the next compound: Cc1[nH]c2c(-c3ccccc3)c(C(F)(F)F)nn2c(=O)c1C(=O)Nc1cccc(C#N)c1
> 4.70

Moving on to the next compound: Cc1[nH]c2c(-c3ccccc3)c(C(F)(F)F)nn2c(=O)c1-c1nnc(C2CCCCN2S(C)(=O)=O)o1 (stereo not drawn)
> 4.70

Moving on to the next compound: COc1ccnc(-c2nnc(-c3c(C)[nH]c4c(-c5ccccc5)c(C(F)(F)F)nn4c3=O)o2)n1
3.60 to 4.70

Moving on to the next compound: Cc1[nH]c2c(-c3ccccc3)c(C(F)(F)F)nn2c(=O)c1-c1nnc(N2CCCCC2CCNS(C)(=O)=O)o1 (stereo not drawn)
> 4.70

New cases:
Entry COc1ccccc1NC(=O)c1c(C)[nH]c2c(C3CCCC3)c(C(F)(F)F)nn2c1=O : reported pIC50 = ?
3.60 to 4.70

Moving on to the next compound: Cc1[nH]c2c(C3CC3)c(C(F)(F)F)nn2c(=O)c1-c1ccccc1
< 3.60

Moving on to the next compound: Cc1[nH]c2c(-c3ccccc3)c(C(F)(F)F)nn2c(=O)c1-c1nnc(C(=N)N)o1
> 4.70

Moving on to the next compound: Cc1[nH]c2c(-c3ccccc3)c(C(F)(F)F)nn2c(=O)c1C(=O)Nc1ccccc1C#N
3.60 to 4.70

Moving on to the next compound: CCc1[nH]c2c(-c3ccccc3)c(C(F)(F)F)nn2c(=O)c1-c1nc2c(OC)cccc2o1
> 4.70

Moving on to the next compound: Cc1[nH]c2c(-c3ccccc3)c(C(F)(F)F)nn2c(=O)c1-c1nnc(C2CCCCC2)s1
> 4.70

Moving on to the next compound: Cc1[nH]c2c(-c3ccccc3)c(C(F)(F)F)nn2c(=O)c1C(=O)Nc1ccccc1N1CCCCC1
3.60 to 4.70

Moving on to the next compound: COc1cccc2oc(-c3c(COCCO)[nH]c4c(-c5ccccc5)c(C#N)nn4c3=O)nc12
> 4.70

Moving on to the next compound: Cc1[nH]c2c(-c3ccccc3)c(C#N)nn2c(=O)c1-c1ncco1
> 4.70

Moving on to the next compound: COc1cc(F)c(F)cc1NC(=O)c1c(C)[nH]c2c(-c3ccccc3)c(C(F)(F)F)nn2c1=O
3.60 to 4.70

Moving on to the next compound: Cc1nn2c(=O)c(C(=O)Nc3ccccc3S(C)(=O)=O)c(C)[nH]c2c1-c1ccccc1
> 4.70

Moving on to the next compound: COCc1nnc(-c2c(C)[nH]c3c(-c4ccccc4)c(C(F)(F)F)nn3c2=O)o1
> 4.70

Moving on to the next compound: Cc1[nH]c2c(-c3ccccc3)c(C(F)(F)F)nn2c(=O)c1-c1nnc(-c2ccnc(O)c2)o1
> 4.70

Moving on to the next compound: COc1cccc2oc(-c3c(C(=O)N4CCC[C@@H]4CO)[nH]c4c(-c5ccccc5)c(C(F)(F)F)nn4c3=O)nc12
3.60 to 4.70

Moving on to the next compound: Cc1[nH]c2c(-c3ccccc3)c(C(F)(F)F)nn2c(=O)c1CCNC(=O)c1ccccc1
3.60 to 4.70

###

Quick list: IC50 per entry.
molecular target: Human cGAS amino acids 155-522 (Homo sapiens (Human), UniProt Q8N884); assay: cGAS biochemical activity assay (ATP remaining, Kinase-Glo Max luminescence); conditions: human cGAS 155-522, ATP remaining (Kinase-Glo Max); read-out: cGAS IC50
Sequence (Q8N884 157-522): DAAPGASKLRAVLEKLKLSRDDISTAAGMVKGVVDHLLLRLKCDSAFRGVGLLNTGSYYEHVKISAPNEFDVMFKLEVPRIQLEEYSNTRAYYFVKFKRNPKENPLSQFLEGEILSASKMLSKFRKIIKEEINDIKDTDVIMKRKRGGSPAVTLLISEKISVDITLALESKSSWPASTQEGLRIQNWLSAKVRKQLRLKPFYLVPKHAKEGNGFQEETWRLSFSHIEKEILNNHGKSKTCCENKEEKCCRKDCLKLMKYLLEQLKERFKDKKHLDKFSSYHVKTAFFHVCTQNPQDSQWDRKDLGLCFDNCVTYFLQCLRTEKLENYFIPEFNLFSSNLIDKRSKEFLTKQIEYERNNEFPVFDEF

Consider the reported IC50 for these compounds:
Entry COCCNC(=O)c1[nH]c2c(-c3ccccc3)c(C(F)(F)F)nn2c(=O)c1-c1nc2c(OC)cccc2o1 : reported IC50 = ?
< 20 µM

Moving on to the next compound: Cc1[nH]c2c(-c3ccccc3)c(C(F)(F)F)nn2c(=O)c1-c1nnc(N2CCCC2)o1
< 20 µM

Moving on to the next compound: COCc1[nH]c2c(-c3ccccc3)c(C#N)nn2c(=O)c1-c1nc2c(OC)nc(N)cc2o1
< 20 µM

Moving on to the next compound: Cc1nnc(Cc2c(C)[nH]c3c(-c4ccccc4)c(C(F)(F)F)nn3c2=O)o1
20 to 250 µM

// moving on: another record for IC50
Entry COc1ccccc1NC(=O)Cc1c(C)[nH]c2c(-c3ccccc3)c(C(F)(F)F)nn2c1=O : reported IC50 = ?
20 to 250 µM

###

target: Human cGAS amino acids 155-522 (Homo sapiens (Human)); assay: cGAS biochemical activity assay (ATP remaining, Kinase-Glo Max luminescence); details: human cGAS 155-522, ATP remaining (Kinase-Glo Max); read-out: cGAS IC50
pIC50: −log10 of the molar value.
Quick list: pIC50 per entry.

Entry COc1cccc2oc(-c3c(C(=O)NC4COC4)[nH]c4c(-c5ccccc5)c(C(F)(F)F)nn4c3=O)nc12 : reported pIC50 = ?
> 4.70

###

target: Human cGAS amino acids 155-522 (Homo sapiens (Human), UniProt Q8N884); test: cGAS biochemical activity assay (ATP remaining, Kinase-Glo Max luminescence); details: human cGAS 155-522, ATP remaining (Kinase-Glo Max); read-out: cGAS IC50
outcomeMeasure: IC50

Consider the reported IC50 for these compounds:
Entry Cc1[nH]c2c(-c3ccccc3)c(C(F)(F)F)nn2c(=O)c1C(=O)Nc1ccc(Cl)cc1 [Compound A1016] : reported IC50 = ?
20 to 250 µM

Moving on to the next compound: COc1cccc2oc(-c3c(C)[nH]c4c(-c5c(F)cccc5F)c(C(F)(F)F)nn4c3=O)nc12 [Compound C1133]
20 to 250 µM

Moving on to the next compound: COc1nn2c(=O)c(-c3nc4c(OC)cccc4o3)c(C)[nH]c2c1-c1ccccc1 [Compound C1064]
20 to 250 µM

Moving on to the next compound: COc1ccc(NC(=O)Cc2c(C)[nH]c3c(-c4ccccc4)c(C(F)(F)F)nn3c2=O)cc1 [Compound B1006]
20 to 250 µM

Moving on to the next compound: Cc1[nH]c2c(-c3ccccc3)c(C(F)(F)F)nn2c(=O)c1-c1nc2cc(Cl)ccc2o1 [Compound C1028]
> 250 µM

New cases:
Entry Cc1[nH]c2c(-c3ccccc3)c(C(F)(F)F)nn2c(=O)c1-c1ccc2nccn2c1 [Compound C1006] : reported IC50 = ?
> 250 µM

Moving on to the next compound: Cc1[nH]c2c(-c3ccccc3)c(C(F)(F)F)nn2c(=O)c1C(=O)Nc1cnccc1S(C)(=O)=O [Compound A1109]
20 to 250 µM

###

target: Human cGAS amino acids 155-522 (Homo sapiens (Human)); assay: cGAS biochemical activity assay (ATP remaining, Kinase-Glo Max luminescence); conditions: human cGAS 155-522, ATP remaining (Kinase-Glo Max); read-out: cGAS IC50
pIC50: −log10 of the molar value.
outcomeMeasure: pIC50

Entry COc1cc(C(N)=O)cc2oc(-c3c(C)[nH]c4c(-c5ccccc5)c(C(F)(F)F)nn4c3=O)nc12 : reported pIC50 = ?
> 4.70

Moving on to the next molecule: COc1ccc(CN)c2oc(-c3c(C)[nH]c4c(-c5ccccc5)c(C(F)(F)F)nn4c3=O)nc12
< 3.60

Moving on to the next molecule: COc1cccc2oc(-c3c(COC4CCCCO4)[nH]c4c(-c5ccccc5)c(C(F)(F)F)nn4c3=O)nc12 (centres unmarked)
> 4.70

Moving on to the next molecule: CC(=O)Nc1ccccc1NC(=O)c1c(C)[nH]c2c(-c3ccccc3)c(C(F)(F)F)nn2c1=O
3.60 to 4.70

Moving on to the next molecule: COc1cc(Cl)cc2oc(-c3c(C)[nH]c4c(-c5ccccc5)c(C(F)(F)F)nn4c3=O)nc12
> 4.70

Moving on to the next molecule: COc1cccc2oc(-c3c(C)[nH]c4c(-c5ccccc5C#N)c(C(F)(F)F)nn4c3=O)nc12
3.60 to 4.70

New cases:
Entry Cc1[nH]c2c(-c3ccccc3)c(C(F)(F)F)nn2c(=O)c1C(=O)Nc1cnccn1 : reported pIC50 = ?
> 4.70

Moving on to the next molecule: CCOC(=O)C1CC=C(c2[nH]c3c(-c4ccccc4)c(C(F)(F)F)nn3c(=O)c2-c2nc3c(OC)cccc3o2)CC1 (centres unmarked)
> 4.70

Moving on to the next molecule: Cc1[nH]c2c(-c3ccccc3)c(C(F)(F)F)nn2c(=O)c1-c1nnc(C(C)(O)C(F)(F)F)o1 (centres unmarked)
3.60 to 4.70

Moving on to the next molecule: Cc1[nH]c2c(-c3ccccc3)c(C(F)(F)F)nn2c(=O)c1C(=O)Nc1cn[nH]c1
3.60 to 4.70

Moving on to the next molecule: COCc1[nH]c2c(-c3ccccc3)c(C(F)(F)F)nn2c(=O)c1C(=O)Nc1ccccc1OC
3.60 to 4.70

Moving on to the next molecule: COc1cccc2oc(-c3c(CN(C)C)[nH]c4c(-c5ccccc5)c(C(F)(F)F)nn4c3=O)nc12
> 4.70

Moving on to the next molecule: COc1cccc2oc(-c3c(C4CCC(C(=O)O)CC4)[nH]c4c(-c5ccccc5)c(C(F)(F)F)nn4c3=O)nc12 (single isomer, unassigned) [Compound C1237]
3.60 to 4.70

Moving on to the next molecule: Cc1[nH]c2c(C3CCCC3)c(C(F)(F)F)nn2c(=O)c1Cc1ccccc1
< 3.60
